Reference source: patent US8080529B2

- System: A549
- Test Protocol: Cytotoxicity assay (MTT), A549 cell line
- Assay type: cell-based
- Settings: 50 μM, 24 h
- Description: To determine whether the anti-inflammatory activity of the test compounds was due to observed inhibition of cytokine production and inhibition of proliferation in vitro, and was not a consequence of cellular cytotoxicity, measurement of succinate dehydrogenase activity in living cells was performed. […] The amount of MTT-Formazan produced was determined using a spectrophotometer at 490 nm (Mosmann, J. Immunol. Methods, 1983, 65: 55-63). […]
Endpoint Name: Percentage of inhibition of cell growth (%)

* CC[C@H]1OC(=O)[C@H](C)[C@@H](O[C@H]2C[C@@](C)(OC)[C@@H](OC(=O)CCN(CC)CC)[C@H](C)O2)[C@H](C)[C@@H](O[C@@H]2O[C@H](C)C[C@H](N(C)C)[C@H]2O)[C@](C)(O)C[C@@H](C)CN(C)[C@H](C)[C@H]2OC(=O)O[C@@]21C | 3
* CC[C@H]1OC(=O)[C@H](C)[C@@H](O[C@H]2C[C@@](C)(OC)[C@@H](OC(=O)CCN(C)C3CCCCC3)[C@H](C)O2)[C@H](C)[C@@H](O[C@@H]2O[C@H](C)C[C@H](N(C)C)[C@H]2O)[C@](C)(OC)C[C@@H](C)C(=O)N[C@H](C)[C@@H](O)[C@]1(C)O | 4
* CC[C@H]1OC(=O)[C@H](C)[C@@H](O[C@H]2C[C@@](C)(OC)[C@@H](OC(=O)CCN(CC)CC)[C@H](C)O2)[C@H](C)[C@@H](O[C@@H]2O[C@H](C)C[C@H](N(C)C)[C@H]2O)[C@](C)(OC)C[C@@H](C)C(=O)[C@H](C)[C@H]2NC(=O)O[C@@]21C | 0
* CC[C@H]1OC(=O)[C@H](C)[C@@H](O[C@H]2C[C@@](C)(OC)[C@@H](OC(=O)CCN(C)C)[C@H](C)O2)[C@H](C)[C@@H](O[C@@H]2O[C@H](C)C[C@H](N(C)C)[C@H]2O)[C@](C)(OC)C[C@@H](C)C(=O)N[C@H](C)[C@@H](O)[C@]1(C)O | 4
* CC[C@H]1OC(=O)[C@H](C)[C@@H](O[C@H]2C[C@@](C)(OC)[C@@H](OCCCN)[C@H](C)O2)[C@H](C)[C@@H](O[C@@H]2O[C@H](C)C[C@H](N(C)C)[C@H]2O)[C@](C)(O)C[C@@H](C)CN(C)[C@H](C)[C@H]2OC(=O)O[C@@]21C [Example 51C] | 0
* C=CC(=O)OC1[C@H](C)O[C@@H](O[C@H]2[C@H](C)[C@@H](O[C@@H]3O[C@H](C)C[C@H](NC)[C@H]3O)[C@](C)(OC)C[C@@H](C)C(=O)N[C@H](C)[C@@H](O)[C@](C)(O)[C@@H](CC)OC(=O)[C@@H]2C)C[C@@]1(C)OC (stereo partly shown) | 12
* CC[C@H]1OC(=O)[C@H](C)[C@@H](O[C@H]2C[C@@](C)(OC)[C@@H](OC(=O)CCN3CCCN(CCCN4CCCC4)CC3)[C@H](C)O2)[C@H](C)[C@@H](O[C@@H]2O[C@H](C)C[C@H](N(C)C)[C@H]2O)[C@](C)(OC)C[C@@H](C)C(=O)N[C@H](C)[C@@H](O)[C@]1(C)O | 1
